target_or_system: Peroxisome proliferator-activated receptor gamma (Homo sapiens, UniProt P37231)
Sequence (P37231 whole entry, the tested form may be a part): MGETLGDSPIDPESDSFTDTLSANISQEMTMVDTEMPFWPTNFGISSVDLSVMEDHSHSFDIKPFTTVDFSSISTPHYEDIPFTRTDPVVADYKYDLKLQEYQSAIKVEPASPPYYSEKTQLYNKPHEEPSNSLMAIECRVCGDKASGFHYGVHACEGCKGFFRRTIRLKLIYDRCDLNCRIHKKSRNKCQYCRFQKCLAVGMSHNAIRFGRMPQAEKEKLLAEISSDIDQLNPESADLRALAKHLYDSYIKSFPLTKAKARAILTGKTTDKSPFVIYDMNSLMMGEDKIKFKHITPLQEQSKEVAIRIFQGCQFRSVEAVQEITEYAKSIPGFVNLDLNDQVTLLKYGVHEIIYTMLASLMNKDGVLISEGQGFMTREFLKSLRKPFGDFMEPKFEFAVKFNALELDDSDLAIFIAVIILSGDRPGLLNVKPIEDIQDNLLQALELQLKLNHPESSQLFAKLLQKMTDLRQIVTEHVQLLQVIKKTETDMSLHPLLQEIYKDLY
protocol_summary: Partial agonist activity at human PPARgamma LBD assessed as activation of CBP1-453 by HTRF assay
Type: functional
Quick reference: EC50 of the listed items.

The following molecules have reported results that may help.
> print(dat)
                            compound.string  value.kind  measured
1  C[C@@H](Oc1cc(Cn2c(=O)n(-c3noc4cc(Cl)ccc34)c3ccc(C(F)(F)F)cc32)ccc1Cl)C(=O)O        EC50   > 50 µM
2  COc1ccc2c(-n3c(=O)n(Cc4cc([C@@]5(C)OC(=O)NC5=O)ccc4Cl)c4ccccc43)noc2c1        EC50   > 50 µM

Shift focus to the following entry.
Using known records, supply EC50 for COc1ccc2c(-n3c(=O)n(Cc4ccc(Cl)c(O[C@H](C)C(=O)O)c4)c4ccccc43)noc2c1
> 50 µM
